Each recorded value in this set is attributed to a melting point compilation (Tetko et al.; mined from patent text by program, amines drawn as free bases though some values may be those of a salt).

Below is a list of entries, each paired with its recorded melting point value.

A selection of reference data follows.
- molecule: "CCC(C)SC1=C(C#N)C(c2ccccc2)(c2ccccc2)C(=O)N1 (stereo not drawn)"
  result: "155 to 156 °C"
- molecule: "O=C(Nc1ccccc1C(=O)NCCc1ncc[nH]1)c1ccc(Cl)cc1Cl"
  result: "178 to 186 °C"

Here is another molecule to look at.
Value of melting point reported for the molecule CCCCCCCCCCCC(=O)Oc1ccc2cc(C(=N)N)ccc2c1 is 149 to 151 °C

====

Catalogue of compounds with associated melting point

- compound: "Cn1c(OC2CCOC2)nn(C(=O)Oc2ccccc2)c1=O (centres undefined)"
  quantity-measured: "melting point"
  result: "98 °C"
- compound: "COC(=O)CCC1CCCCCCCCCCC1=O (centres undefined)"
  quantity-measured: "melting point"
  result: "33 to 35 °C"
- compound: "CC(=O)OCCCCCCOc1ccccc1C(=O)Nc1ccc(C(=O)N2CCCCc3ccccc32)cc1"
  quantity-measured: "melting point"
  result: "145 to 146 °C"
- compound: "CCCCCC[C@H](C)Oc1ccc(-c2ccc(O)c([N+](=O)[O-])c2)cc1"
  quantity-measured: "melting point"
  result: "40 °C"
- compound: "COc1cc(CO[Si](C(C)C)(C(C)C)C(C)C)ccc1OCc1nc(-c2cccc(-c3nnn[nH]3)c2)oc1C"
  quantity-measured: "melting point"
  result: "152 to 153 °C"

Field melting point (entry CCOC(=O)c1sccc1S(=O)(=O)NC(=O)Nc1nc(C)nc(OC)n1 ) reads 166 °C

====

quantity-measured: melting point

- compound: "CC(=O)OC1CCC2(C)C(CCC3=C4C(=O)CC(C(C)CCCN(C)C)C4(C)CCC32)C1 (configuration not stated)"
  quantity-measured: "melting point"
  result: "122 to 124 °C"
- compound: "O=C(O)c1ccc2c(c1)C(=O)C(c1nc3ccccc3cc1O)C2=O (configuration not stated)"
  quantity-measured: "melting point"
  result: "> 350 °C"
- compound: "Nc1c(CC(=O)O)cccc1Nc1ccc(Cl)cc1"
  quantity-measured: "melting point"
  result: "190 to 192 °C"
- compound: "CCOC(=O)C(C)=Cc1cn(-c2cccnc2)c2ccccc12"
  quantity-measured: "melting point"
  result: "97 to 99 °C"

melting point measured on O=C1C2=C(CCCC2)C(=S)N1c1ccc(Cl)cc1F = 101 to 102 °C

According to the records, this compound Cc1ncnc(-c2cc(O)c(Cl)cc2F)c1C displays melting point of 176 to 178 °C

melting point measured on COc1cc(C)c(OC)c(OC)c1-c1csc(NC(=O)c2cc3ccccc3[nH]2)n1 = 200 °C

Looking up COCCn1cc2c(C3C(=O)Nc4ccc(Br)cc43)nc(NCC(C)O)nc2n1 (configuration not stated) , I see its melting point listed as > 300 °C

For record NCCc1ccc(CCC(=O)O)cc1 the listed melting point is 270 to 272 °C

Measured melting point of CC(C)n1c(=O)n(C)c(=O)c2c(S(=O)(=O)CCCO)n(C3Cc4ccccc4C3)cc21 : 171 to 172 °C

====

The following compounds are listed with their measured melting point values.

Previously resolved entries follow.
- substance-smiles: "CN(CCCNC1=CC(=O)c2scnc2C1=O)CCCNC1=CC(=O)c2scnc2C1=O"
  result: "223 to 224 °C"
- substance-smiles: "CN(C)CCOc1cc2c(Nc3cccc(Br)c3)c(C#N)cnc2cn1"
  result: "138 to 139 °C"

Below: the item to evaluate.
So, Nc1ccc(N2CCCC2)c(S(=O)(=O)O)c1 ? Its melting point was 255 to 256 °C
